# TESTED TARGET: T1, GST-MTDH (364-582), wild type (human, UniProt Q86UE4 364-582)
# T1 construct: not shown: N-terminal GST tag with TEV site, pQlink vector
# T1 sequence: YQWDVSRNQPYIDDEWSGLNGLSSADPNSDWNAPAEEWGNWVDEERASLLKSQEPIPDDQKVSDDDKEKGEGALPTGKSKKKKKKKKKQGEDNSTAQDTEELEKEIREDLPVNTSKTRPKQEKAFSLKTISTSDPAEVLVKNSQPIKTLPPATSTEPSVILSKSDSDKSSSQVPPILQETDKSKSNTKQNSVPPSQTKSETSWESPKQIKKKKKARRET
# ASSAY DETAILS: pull-down by GST-MTDH (364-582) on glutathione resin, SDS-PAGE, Coomassie blue; normalised percentage of binding, mean±SEM of three experiments
# reported % Maximum binding; entries follow
EXPERIMENTAL ENDPOINT: % Maximum binding (%)

[[record]]
binder = "SND1 (16-339) R316E (negative control mutation outside the interface) (other, not shown: N-terminal His tag (His6, His8 or His) with TEV site, pQlink vector) VPTVQRGIIKMVLSGCAIIVRGQPRGGPPPERQINLSNIRAGNLARRAAATQPDAKDTPDEPWAFPAREFLRKKLIGKEVCFTIENKTPQGREYGMIYLGKDTNGENIAESLVAEGLATRREGMRANNPEQNRLSECEEQAKAAKKGMWSEGNGSHTIRDLKYTIENPRHFVDSHHQKPVNAIIEHVRDGSVVRALLLPDYYLVTVMLSGIKCPTFRREADGSETPEPFAAEAKFFTESRLLQRDVQIILESCHNQNILGTILHPNGNITELLLKEGFARCVDWSIAVYTRGAEKLRAAEEFAKERRLRIWRDYVAPTANLDQK"
unit_abbrev = "%"
result_number = 88

[[record]]
binder = "SND1 (16-339) R255E (other, not shown: N-terminal His tag (His6, His8 or His) with TEV site, pQlink vector) VPTVQRGIIKMVLSGCAIIVRGQPRGGPPPERQINLSNIRAGNLARRAAATQPDAKDTPDEPWAFPAREFLRKKLIGKEVCFTIENKTPQGREYGMIYLGKDTNGENIAESLVAEGLATRREGMRANNPEQNRLSECEEQAKAAKKGMWSEGNGSHTIRDLKYTIENPRHFVDSHHQKPVNAIIEHVRDGSVVRALLLPDYYLVTVMLSGIKCPTFRREADGSETPEPFAAEAKFFTESELLQRDVQIILESCHNQNILGTILHPNGNITELLLKEGFARCVDWSIAVYTRGAEKLRAAERFAKERRLRIWRDYVAPTANLDQK"
unit_abbrev = "%"
result_number = 2

[[record]]
binder = "SND1 (16-339) R324E (other, not shown: N-terminal His tag (His6, His8 or His) with TEV site, pQlink vector) VPTVQRGIIKMVLSGCAIIVRGQPRGGPPPERQINLSNIRAGNLARRAAATQPDAKDTPDEPWAFPAREFLRKKLIGKEVCFTIENKTPQGREYGMIYLGKDTNGENIAESLVAEGLATRREGMRANNPEQNRLSECEEQAKAAKKGMWSEGNGSHTIRDLKYTIENPRHFVDSHHQKPVNAIIEHVRDGSVVRALLLPDYYLVTVMLSGIKCPTFRREADGSETPEPFAAEAKFFTESRLLQRDVQIILESCHNQNILGTILHPNGNITELLLKEGFARCVDWSIAVYTRGAEKLRAAERFAKERRLEIWRDYVAPTANLDQK"
unit_abbrev = "%"
result_number = 26

[[record]]
binder = "His-SND1 (16-339), SN1/2 domains, wild type (other, also called His6-SND1 harboring the SN1/2 domains; not shown: N-terminal His tag (His6, His8 or His) with TEV site, pQlink vector) VPTVQRGIIKMVLSGCAIIVRGQPRGGPPPERQINLSNIRAGNLARRAAATQPDAKDTPDEPWAFPAREFLRKKLIGKEVCFTIENKTPQGREYGMIYLGKDTNGENIAESLVAEGLATRREGMRANNPEQNRLSECEEQAKAAKKGMWSEGNGSHTIRDLKYTIENPRHFVDSHHQKPVNAIIEHVRDGSVVRALLLPDYYLVTVMLSGIKCPTFRREADGSETPEPFAAEAKFFTESRLLQRDVQIILESCHNQNILGTILHPNGNITELLLKEGFARCVDWSIAVYTRGAEKLRAAERFAKERRLRIWRDYVAPTANLDQK"
unit_abbrev = "%"
result_number = 100

[[record]]
binder = "SND1 (16-339) Δ39-43 (deletion in the SN1 Lβ2-β3 loop) (other, also called 439-43; not shown: N-terminal His tag (His6, His8 or His) with TEV site, pQlink vector) VPTVQRGIIKMVLSGCAIIVRGQPPERQINLSNIRAGNLARRAAATQPDAKDTPDEPWAFPAREFLRKKLIGKEVCFTIENKTPQGREYGMIYLGKDTNGENIAESLVAEGLATRREGMRANNPEQNRLSECEEQAKAAKKGMWSEGNGSHTIRDLKYTIENPRHFVDSHHQKPVNAIIEHVRDGSVVRALLLPDYYLVTVMLSGIKCPTFRREADGSETPEPFAAEAKFFTESRLLQRDVQIILESCHNQNILGTILHPNGNITELLLKEGFARCVDWSIAVYTRGAEKLRAAERFAKERRLRIWRDYVAPTANLDQK"
unit_abbrev = "%"
result_number = 2

